Where do these numbers come from? They come from paper PMC10150365.

# measurement-protocol: Plasma stability
# Type: in vitro ADME
# condition-description: pooled plasma; mouse plasma, 60 min; read-out: Compound remaining (% of 0 min)
readout-name: remaining at 60 min, 1 µM (%)

- substance-smiles: "Cc1ccc(NC(=O)c2ccc3c(c2)OCCO3)cc1NC(=O)c1ccc2nc(OCCN3CCCC3)ccc2c1"
  readout-name: "remaining at 60 min, 1 µM"
  units-symbol: "%"
  reported: 93.3

----------
Measured Vdu of individual entries
# measurement-protocol: Mouse blood PK (BALB/c)
# condition-description: BALB/c mice; Vss/fub
readout-name: Vdu

- substance-smiles: "Cc1ccc(NC(=O)c2ccc3c(c2)OCCO3)cc1NC(=O)c1ccc2nc(OCCN3CCCCC3)ccc2c1"
  reported: "340 L/kg"
- substance-smiles: "CCN1CCN(Cc2ccc3cc(C(=O)Nc4cc(NC(=O)c5ccc6c(c5)OCCO6)ccc4Cl)ccc3n2)CC1"
  reported: "1100 L/kg"
- substance-smiles: "Cc1ccc(NC(=O)c2ccc3c(c2)OCCO3)cc1NC(=O)c1ccc2nc(CN3CCN(C(C)C)CC3)ccc2c1"
  reported: "80 L/kg"
- substance-smiles: "CC(C)N1CCN(Cc2ccc3cc(C(=O)Nc4cc(NC(=O)c5ccc6c(c5)OCCO6)ccc4Cl)ccc3n2)CC1"
  reported: "450 L/kg"

----------
# measurement-protocol: in vitro
# condition-description: human, Caco-2, pH 7.4, Recovery, A2B, individual experiments

- compound: "Cc1ccc(NC(=O)c2ccc3c(c2)OCCO3)cc1NC(=O)c1ccc2nc(OCCN3CCCC3)ccc2c1 [Compound 1]"
  units-symbol: "%"
  recovery: 90

----------
# measurement-protocol: Mouse blood PK (BALB/c)
# condition-description: female, BALB/c, mouse, in vivo, po, 5 mg/kg
As shown below, each of these compounds has a reported bioavailability at 24 h value.

- substance-smiles: "CC(C)N1CCN(Cc2ccc3cc(C(=O)Nc4cc(NC(=O)c5ccc6c(c5)OCCO6)ccc4Cl)ccc3n2)CC1"
  units-symbol: "%"
  bioavailability at 24 h: 63
- substance-smiles: "Cc1ccc(NC(=O)c2ccc3c(c2)OCCO3)cc1NC(=O)c1ccc2nc(CN3CCN(C(C)C)CC3)ccc2c1"
  units-symbol: "%"
  bioavailability at 24 h: 11
- substance-smiles: "Cc1ccc(NC(=O)c2ccc3c(c2)OCCO3)cc1NC(=O)c1ccc2nc(OCCN3CCCCC3)ccc2c1"
  units-symbol: "%"
  bioavailability at 24 h: 24

----------
# measurement-protocol: Plasma protein binding and blood-to-plasma ratio
# condition-description: female, BALB/c, mouse, plasma
readout-name: blood plasma ratio at 30 min, 1 µM

- molecule: "Cc1ccc(NC(=O)c2ccc3c(c2)OCCO3)cc1NC(=O)c1ccc2nc(CN3CCN(C(C)C)CC3)ccc2c1 [Compound 16]"
  readout-name: "blood plasma ratio at 30 min, 1 µM"
  reported: 1.3

----------
# measurement-protocol: Mouse blood PK (BALB/c)
# condition-description: female, BALB/c, mouse, in vivo, iv, 5 mg/kg
Listing of recorded half-life at 24 h by entry.

- compound: "CCN1CCN(Cc2ccc3cc(C(=O)Nc4cc(NC(=O)c5ccc6c(c5)OCCO6)ccc4Cl)ccc3n2)CC1 [Compound 21]"
  half-life at 24 h, h: 2.3
- compound: "Cc1ccc(NC(=O)c2ccc3c(c2)OCCO3)cc1NC(=O)c1ccc2nc(CN3CCN(C(C)C)CC3)ccc2c1 [Compound 16]"
  half-life at 24 h, h: 1.2

----------
# measurement-protocol: Plasma stability
# Type: in vitro ADME
# condition-description: pooled plasma; human plasma, 120 min; read-out: Compound remaining (% of 0 min)
readout-name: remaining at 120 min, 1 µM (%)

- compound: "Cc1ccc(NC(=O)c2ccc3c(c2)OCCO3)cc1NC(=O)c1ccc2nc(OCCN3CCCC3)ccc2c1 [Compound 1]"
  reported: 95.1

----------
# measurement-protocol: iv PK in CF1 wild-type and P-gp-knockout mice
# Type: in vivo, mouse
# condition-description: CF1 wild type, mouse, whole blood, iv, 5 mg/kg; CF1^WT mice; read-out: Vss

- substance-smiles: "Cc1ccc(NC(=O)c2ccc3c(c2)OCCO3)cc1NC(=O)c1ccc2nc(OCCN3CCCCC3)ccc2c1"
  Vd: "4.7 L/kg"

----------
# measurement-protocol: Rat blood PK (Sprague-Dawley)
# Format: in vivo
# condition-description: female, Sprague-Dawley, rat, whole blood, 5 mg/kg; SD rats, terminal, from iv dose

- substance-smiles: "Cc1ccc(NC(=O)c2ccc3c(c2)OCCO3)cc1NC(=O)c1ccc2nc(OCCN3CCCC3)ccc2c1"
  half-life (h): 3.2

----------
# measurement-protocol: Mouse blood PK (BALB/c)
# condition-description: female, BALB/c, mouse, in vivo, iv, 1 mg/kg
readout-name: half-life at 24 h (h)

- substance-smiles: "CC(C)N1CCN(Cc2ccc3cc(C(=O)Nc4cc(NC(=O)c5ccc6c(c5)OCCO6)ccc4Cl)ccc3n2)CC1"
  reported: 2

----------
# measurement-protocol: Mouse blood PK (BALB/c)
# condition-description: female, BALB/c, mouse, whole blood, iv

- substance-smiles: "Cc1ccc(NC(=O)c2ccc3c(c2)OCCO3)cc1NC(=O)c1ccc2nc(OCCN3CCCCC3)ccc2c1"
  units-symbol: "L/kg"
  Vd: 5.1

----------
# measurement-protocol: Rat blood PK (Sprague-Dawley)
# Format: in vivo
# condition-description: female, Sprague-Dawley, rat, whole blood, 5 mg/kg; SD rats, po
readout-name: Tmax

- compound: "Cc1ccc(NC(=O)c2ccc3c(c2)OCCO3)cc1NC(=O)c1ccc2nc(OCCN3CCCC3)ccc2c1 [Compound 1]"
  reported: "> 6 h"

----------
# measurement-protocol: Mouse blood PK (BALB/c)
# condition-description: female, BALB/c, mouse, in vivo, po, 5 mg/kg, AUCu^0–6h, BALB/c mice; AUC*fub

- molecule: "CCN1CCN(Cc2ccc3cc(C(=O)Nc4cc(NC(=O)c5ccc6c(c5)OCCO6)ccc4Cl)ccc3n2)CC1 [Compound 21]"
  AUC: "0.02 µM·h"
- molecule: "Cc1ccc(NC(=O)c2ccc3c(c2)OCCO3)cc1NC(=O)c1ccc2nc(OCCN3CCCCC3)ccc2c1 [Compound 17]"
  AUC: "0.012 µM·h"
- molecule: "Cc1ccc(NC(=O)c2ccc3c(c2)OCCO3)cc1NC(=O)c1ccc2nc(CN3CCN(C(C)C)CC3)ccc2c1 [Compound 16]"
  AUC: "0.014 µM·h"
- molecule: "CC(C)N1CCN(Cc2ccc3cc(C(=O)Nc4cc(NC(=O)c5ccc6c(c5)OCCO6)ccc4Cl)ccc3n2)CC1 [Compound 18]"
  AUC: "0.026 µM·h"

----------
# Tested on: SK-OV-3
# measurement-protocol: cells
# Assay type: cell-based, human
# condition-description: Homo sapiens, SK-OV-3; 96 h, CellTiter-Blue, geometric mean; read-out: SK-OV-3 GI50

- molecule: "CN1CCN(Cc2ccc3cc(C(=O)Nc4cc(NC(=O)c5ccc6c(c5)OCCO6)ccc4Cl)ccc3n2)CC1 [Compound 20]"
  GI50 / nM: 19
- molecule: "Cc1ccc(NC(=O)c2ccc3c(c2)OCCO3)cc1NC(=O)c1ccc2nc(CN3CCN(C)CC3)ccc2c1 [Compound 15]"
  GI50 / nM: 9.5
- molecule: "Cc1ccc(NC(=O)c2ccc3c(c2)OCCO3)cc1NC(=O)c1ccc2nc(CN3CCCCC3)ccc2c1 [Compound 14]"
  GI50 / nM: 73
- molecule: "Cc1ccc(NC(=O)c2ccc3c(c2)OCCO3)cc1NC(=O)c1ccc2nc(CN3CCCC3)ccc2c1 [Compound 11]"
  GI50 / nM: 6.2
- molecule: "O=C(Nc1ccc(Cl)c(NC(=O)c2ccc3nc(CN4CCNCC4)ccc3c2)c1)c1ccc2c(c1)OCCO2 [Compound 19]"
  GI50 / nM: 12
- molecule: "Cc1ccc(NC(=O)c2ccc3c(c2)OCCO3)cc1NC(=O)c1ccc2nc(CN3CCN(C(C)C)CC3)ccc2c1 [Compound 16]"
  GI50 / nM: 8.8
- molecule: "Cc1ccc(NC(=O)c2ccc3c(c2)OCCO3)cc1NC(=O)c1ccc2nc(CN(C)C)ccc2c1 [Compound 12]"
  GI50 / nM: 12
- molecule: "CC(C)N1CCN(Cc2ccc3cc(C(=O)Nc4cc(NC(=O)c5ccc6c(c5)OCCO6)ccc4Cl)ccc3n2)CC1 [Compound 18]"
  GI50 / nM: 15
- molecule: "CCN1CCN(Cc2ccc3cc(C(=O)Nc4cc(NC(=O)c5ccc6c(c5)OCCO6)ccc4Cl)ccc3n2)CC1 [Compound 21]"
  GI50 / nM: 11
- molecule: "Cc1ccc(NC(=O)c2ccc3c(c2)OCCO3)cc1NC(=O)c1ccc2nc(CN3CCCC3C)ccc2c1 (racemic) [Compound 13]"
  GI50 / nM: 7.1

----------
# measurement-protocol: Mouse blood PK (BALB/c)
# condition-description: female, BALB/c, mouse, in vivo, po, 5 mg/kg

- substance-smiles: "CCN1CCN(Cc2ccc3cc(C(=O)Nc4cc(NC(=O)c5ccc6c(c5)OCCO6)ccc4Cl)ccc3n2)CC1"
  units-symbol: "%"
  bioavailability: 96
